System: HeLa cells
Assay: Measurement of the cell cycle inhibition in HeLa cells
Format: cell-based
Details: HeLa B cells, 20 h incubation with compound; FACS ratio G0/G1 to G2/M vs DMSO; concentration at which 50% of cells are in cell cycle arrest
Parameter measured: IC50 (nM)
Note: unit nM is implicit; provide only the numeric part.

Query block: Recorded IC50 for `C[C@H](Nc1nc(C(N)=NOC(F)F)nc(Cl)c1-c1c(F)cc(F)cc1F)C(F)(F)F` with HeLa cells, please?
Result block: 21

Query block: Item: `CC(C)[C@@H](C)Nc1nc(-n2cncn2)nc(Cl)c1-c1c(F)cc(F)cc1F` Test system: HeLa cells Read-out: IC50 Value: ?
Result block: 19

Query block: Give the reported IC50 for `C[C@H](Nc1nc(-n2cncn2)nc(Cl)c1-c1c(F)cc(F)cc1F)C(F)(F)F` (system: HeLa cells).
Result block: 13

Query block: Query IC50 on HeLa cells for `C=CCCN(C)c1nc(-n2cccn2)nc(Cl)c1-c1ccc(F)cc1Cl`
Result block: 46

Query block: Value wanted: IC50 (HeLa cells) of entry `Cc1nc(C)n(-c2nc(Cl)c(-c3c(F)cccc3F)c(N3CCC(C)CC3)n2)n1`
Result block: 32

Query block: Query for HeLa cells: what IC50 does the record show for `Cc1nc(C)n(-c2nc(Cl)c(-c3c(F)cc(F)cc3F)c(N3CCCCC3)n2)n1` ?
Result block: 23

Query block: Reported IC50 for HeLa cells, given Cc1cn(-c2nc(Cl)c(-c3c(F)cc(F)cc3F)c(NC(C)C(F)(F)F)n2)nc1-c1ccco1 (centres unmarked) ?
Result block: 39

Query block: Value wanted: IC50 (HeLa cells) of entry CC1CCCN(c2nc(-n3cncn3)nc(Cl)c2-c2c(F)cc(F)cc2F)C1 (centres unmarked)
Result block: 18

Query block: Can you look up IC50 on HeLa cells for `CC1CCN(c2nc(-c3ccccn3)nc(Cl)c2-c2c(F)cccc2F)CC1` ?
Result block: 34

Query block: Lab note: need IC50 with HeLa cells for entry `CC(C)[C@@H](C)Nc1nc(-n2ccnn2)nc(Cl)c1-c1c(F)cccc1Cl` , please look it up.
Result block: 9.1

Query block: For HeLa cells, provide IC50 of CCC(C)Nc1nc(C(N)=NO)nc(Cl)c1-c1c(F)cc(F)cc1F (centres unmarked) please.
Result block: 32

Query block: Query the reported IC50 for HeLa cells; item: `CC(C)[C@H](C)Nc1nc(C(N)=NO)nc(Cl)c1-c1c(F)cc(F)cc1F`
Result block: 23

Query block: Quick check: IC50 on HeLa cells, item `C[C@H](Nc1nc(-n2nccn2)nc(Br)c1-c1c(F)cc(F)cc1F)C(F)(F)F` ?
Result block: 30

Query block: Query the reported IC50 for HeLa cells; item: `Cc1ccnc(-c2nc(Cl)c(-c3c(F)cc(F)cc3F)c(NC(C)C)n2)c1`
Result block: 43

Query block: Request - read-out IC50 | tested on HeLa cells | molecule `Fc1cc(F)c(-c2c(Cl)nc(-n3cccn3)nc2N2CCCCC2)c(F)c1`
Result block: 6.5

Query block: Hi! What's the reported IC50 for CCC(C)Nc1nc(-n2ccc(N)n2)nc(Cl)c1-c1c(C)cccc1F (centres unmarked) on HeLa cells?
Result block: 32

Query block: Request - read-out IC50 | tested on HeLa cells | molecule `CC1CCN(c2nc(-c3ccccn3)nc(Cl)c2-c2c(F)cc(O)cc2F)CC1`
Result block: 11

----------
Tested on: HeLa cells
Test: Measurement of the cell cycle inhibition in HeLa cells
Type: cell-based
Settings: HeLa B cells, 20 h incubation with compound; FACS ratio G0/G1 to G2/M vs DMSO; concentration at which 50% of cells are in cell cycle arrest
Parameter measured: pIC50
Note on pIC50: it is the negative log10 of concentration, concentration in mol/L.

Query block: Name the reported pIC50 value associated with the molecule CC(C)[C@H](C)Nc1nc(C(N)=NO)nc(Cl)c1-c1cc(F)ccc1Cl [Example 201]
Result block: 7.52

Query block: For the molecule shown here, CCC(C)Nc1nc(-n2ccc(N)n2)nc(Cl)c1-c1c(F)cccc1Cl (stereo not shown) [Example 148] , give the reported pIC50.
Result block: 7.47

Query block: So what's the measured pIC50 for this one? CCC(C)Nc1nc(-n2ccnn2)nc(Cl)c1-c1c(C)cccc1F (stereo not shown) [Example 111]
Result block: 7.54

Query block: Recorded pIC50 of CC1CCCCN1c1nc(-n2cccn2)nc(Br)c1-c1c(F)cc(F)cc1F (stereo not shown) [Example 161] , please.
Result block: 7.30

----------
I'd appreciate it if you could supply pIC50 values for the items below.
System: HeLa cells
Experiment: Measurement of the cell cycle inhibition in HeLa cells
Format: cell-based
Conditions: HeLa B cells, 20 h incubation with compound; FACS ratio G0/G1 to G2/M vs DMSO; concentration at which 50% of cells are in cell cycle arrest
The read-out pIC50 is expressed as -log10 of concentration in moles per litre.

Query block: # input molecule: COc1cc(F)c(-c2c(Cl)nc(-c3ccccn3)nc2N[C@@H](C)C(C)C)c(F)c1 [Example 65] ; wanted: its pIC50
Result block: 7.70

Query block: Any idea what pIC50 was measured for C[C@H](Nc1nc(-c2ccccn2)nc(Cl)c1-c1c(F)cc(F)cc1F)C(F)(F)F [Example 12] ?
Result block: 8.16

Query block: // returns reported pIC50 for input CC(C)[C@H](C)Nc1nc(C(N)=NO)nc(Cl)c1-c1c(F)cccc1F [Example 195]
Result block: 7.70

Query block: What value of measured pIC50 is listed for CC(C)[C@@H](C)Nc1nc(-n2cncn2)nc(Cl)c1-c1c(F)cccc1Cl [Example 48] ?
Result block: 7.89

Query block: Quick one: pIC50 for CC(=NO)c1nc(Cl)c(-c2c(F)cc(F)cc2F)c(N[C@@H](C)C(F)(F)F)n1 [Example 209] ?
Result block: 7.74

Query block: Field request: pIC50 | item: CC(C)Nc1nc(C(N)=NO)nc(Cl)c1-c1c(F)cc(F)cc1F [Example 144]
Result block: 7.60

Query block: Would you mind telling me what pIC50 value was observed for CCC(C)Nc1nc(ON=C(C)C)nc(Cl)c1-c1c(C)cccc1F (centres unmarked) [Example 112] ?
Result block: 7.68

Query block: Fill in: pIC50 of CON=C(N)c1nc(Cl)c(-c2ccc([N+](=O)[O-])cc2Cl)c(N[C@@H](C)C(C)C)n1 [Example 219] is ___
Result block: 7.54

Query block: Record request: pIC50 value, item CON=C(N)c1nc(Cl)c(-c2c(F)cc(OC)cc2F)c(N2CCC(C)CC2)n1 [Example 197]
Result block: 7.38

Query block: # query: pIC50 of entry Cc1cnn(-c2nc(Cl)c(-c3c(F)cc(F)cc3F)c(N3CCCCC3)n2)c1 [Example 55]
Result block: 7.59

Query block: Name the recorded pIC50 for CC(C)Nc1nc(-n2ccc(C(F)(F)F)n2)nc(Cl)c1-c1c(F)cc(F)cc1F [Example 16] .
Result block: 7.34

Query block: Item CCC(C)Nc1nc(-n2cncn2)nc(Cl)c1-c1c(C)cccc1F (centres unmarked) [Example 110] has what recorded pIC50?
Result block: 7.60

Query block: Given the molecule COc1ccc(-c2c(Cl)nc(C(N)=O)nc2N[C@@H](C)C(C)C)c(Cl)c1 [Example 183] , what is its reported pIC50?
Result block: 7.28

Query block: Please report the recorded pIC50 for COc1cc(F)c(-c2c(Cl)nc(-c3ccccn3)nc2NC2CCCC2)c(F)c1 [Example 64] .
Result block: 7.68

Query block: Request the reported pIC50 associated with CC[C@H](C)Nc1nc(-n2cccn2)nc(Cl)c1-c1ccc(C)cc1F [Example 102]
Result block: 7.30

Query block: // pIC50 lookup, key: CON=C(N)c1nc(Cl)c(-c2c(F)cc(F)cc2F)c(N[C@@H](C)C(C)C)n1 [Example 147]
Result block: 7.39

Query block: Requested field: pIC50. Item: CON=C(N)c1nc(Cl)c(-c2ccc(F)cc2Cl)c(N2CCCC2C)n1 (centres unmarked) [Example 170]
Result block: 7.23

----------
Test system: HeLa cells
Test: Measurement of the cell cycle inhibition in HeLa cells
Assay type: cell-based
Settings: HeLa B cells, 20 h incubation with compound; FACS ratio G0/G1 to G2/M vs DMSO; concentration at which 50% of cells are in cell cycle arrest
Give measured pIC50 for each item. Keep answers brief.
Conceptually, pIC50 converts a concentration in mol/L into minus its log10.

Query block: # pIC50 lookup, item `C[C@H](Nc1nc(-n2ccc(Br)n2)nc(Cl)c1-c1c(F)cc(F)cc1F)C(F)(F)F`
Result block: 7.62

Query block: Look up pIC50 for this molecule: `CC[C@H](C)Nc1nc(C(N)=NO)nc(Cl)c1-c1ccc(F)cc1Cl`
Result block: 7.44

Query block: Which pIC50 is listed for `C[C@@H](Nc1nc(C(N)=NO)nc(Cl)c1-c1c(F)cc(F)cc1F)C(F)(F)F` ?
Result block: 8.82

Query block: pIC50 lookup needed for CCC(C)Nc1nc(-n2ccnn2)nc(Cl)c1-c1c(F)cc(F)cc1F (stereo not shown) , thanks.
Result block: 7.70

Query block: Form field: reported pIC50 of `C=CCN(C)c1nc(-n2cc(Br)cn2)nc(Cl)c1-c1c(F)cc(F)cc1F`
Result block: 7.31

Query block: # pIC50 lookup, item `CON=C(N)c1nc(Cl)c(-c2c(F)cc(F)cc2F)c(N[C@H](C)C(F)(F)F)n1`
Result block: 8.74

Query block: I am curious: what pIC50 value has been reported for `C[C@H](Nc1nc(N(C)N)nc(Cl)c1-c1c(F)cc(F)cc1F)C(F)(F)F` ?
Result block: 7.89

Query block: Would you mind telling me what pIC50 value was observed for `C=CCN(C)c1nc(-n2cccn2)nc(Cl)c1-c1c(F)cc(F)cc1F` ?
Result block: 7.41

Query block: GET /values?readout=pIC50&item= `Cc1ccc(-c2c(Cl)nc(-n3ccc(N)n3)nc2NCC(F)(F)F)c(F)c1`
Result block: 7.39

Query block: # get_value(readout='pIC50', item= Cc1ccc(-c2c(Cl)nc(-n3cccn3)nc2N2CCCC(C)C2)c(F)c1 (stereo not shown) )
Result block: 7.41

Query block: Record request: pIC50 value, item CC(Nc1nc(-c2cccnn2)nc(Cl)c1-c1c(F)cc(F)cc1F)C(F)(F)F (stereo not shown)
Result block: 7.68

Query block: What pIC50 value was documented for this molecule, CC1CCCN1c1nc(-n2ccnn2)nc(Cl)c1-c1c(F)cc(F)cc1F (stereo not shown) ?
Result block: 8.12

Query block: Can you look up the measured pIC50 of `Cc1nc(-n2ccnn2)nc(N[C@@H](C)C(F)(F)F)c1-c1c(F)cc(F)cc1F` for me?
Result block: 7.72

Query block: What pIC50 value was documented for this molecule, `C=C(C)CNc1nc(-n2ccc(N)n2)nc(Cl)c1-c1c(F)cc(F)cc1F` ?
Result block: 7.34

Query block: Consider the molecule shown here: `CC(C)[C@H](C)Nc1nc(C(N)=NO)nc(Cl)c1-c1ccc(F)cc1Cl` What is its recorded pIC50?
Result block: 8.05

Query block: // lookup pIC50 for `CC(C)Nc1nc(-c2cnccn2)nc(Cl)c1-c1c(F)cccc1Cl`
Result block: 7.62

Query block: // query pIC50 value for entry `C[C@H](Nc1nc(-n2cnc(SCc3ccccc3)n2)nc(Cl)c1-c1c(F)cc(F)cc1F)C(F)(F)F`
Result block: 8.08

Query block: So what does the record say about pIC50 for `CON=C(N)c1nc(Cl)c(-c2c(F)cc(OC)cc2F)c(N[C@@H](C)C(C)C)n1` ?
Result block: 7.82

Query block: Need pIC50, item CCC(C)Nc1nc(-n2cccn2)nc(Cl)c1-c1ccc(C)cc1F (stereo not shown)
Result block: 7.89

Query block: Given `CC(C)c1ccn(-c2nc(Cl)c(-c3c(F)cc(F)cc3F)c(N[C@@H](C)C(F)(F)F)n2)n1` , state its recorded pIC50.
Result block: 8.34

Query block: What does the record list as pIC50 for `COc1ccc(-c2c(Cl)nc(C(N)=NO)nc2N[C@@H](C)C(C)C)c(Cl)c1` ?
Result block: 7.52

Query block: # get_value(readout='pIC50', item= CCOC(=O)C(C)C=NNc1nc(Cl)c(-c2c(F)cc(F)cc2F)c(N[C@@H](C)C(F)(F)F)n1 (stereo partly shown) )
Result block: 7.62

Query block: I am curious: what pIC50 value has been reported for `C[C@H](Nc1nc(C#N)nc(Cl)c1-c1c(F)cc(F)cc1F)C(F)(F)F` ?
Result block: 7.33

Query block: Quick one: pIC50 of `C[C@H](Nc1nc(C(N)=NO)nc(Cl)c1-c1c(F)cccc1Cl)C(F)(F)F` ?
Result block: 7.70

Query block: Requested field: pIC50. Item: `C[C@H](Nc1nc(-n2cc(Cl)cn2)nc(Cl)c1-c1c(F)cc(F)cc1F)C(F)(F)F`
Result block: 7.44

Query block: What measured pIC50 goes with `CON=C(N)c1nc(Cl)c(-c2cc(F)ccc2Cl)c(N[C@@H](C)C(F)(F)F)n1` ?
Result block: 7.52

Query block: Sample `Cc1nc(-c2nc(Cl)c(-c3c(F)cc(F)cc3F)c(NC3CCCC3)n2)cs1` — what was its pIC50?
Result block: 7.34

Query block: What value of pIC50 has been reported for the following molecule? `CC1CCN(c2nc(-c3nccs3)nc(Cl)c2-c2c(F)cc(F)cc2F)CC1`
Result block: 7.59

Query block: For `CC(C)[C@@H](C)Nc1nc(-n2cnc([N+](=O)[O-])n2)nc(Cl)c1-c1c(F)cc(F)cc1F` , what is its reported pIC50?
Result block: 7.33

Query block: Quick one: pIC50 for `C[C@H](Nc1nc(-n2cccn2)nc(F)c1-c1c(F)cc(F)cc1F)C(F)(F)F` ?
Result block: 7.70

Query block: What does the record list as pIC50 for CC1CCCCN1c1nc(-n2cccn2)nc(Cl)c1-c1c(F)cc(F)cc1F (stereo not shown) ?
Result block: 7.54

Query block: Suppose we examine the molecule `C[C@H](Nc1nc(C(N)=NO)nc(Cl)c1-c1c(F)cccc1F)C(F)(F)F` ; what pIC50 value has been reported?
Result block: 7.74

Query block: # lookup: pIC50 of `Cc1nc(-n2cncn2)nc(N2CCC(C)CC2)c1-c1c(F)cc(F)cc1F`
Result block: 7.41

Query block: Returns the measured pIC50 for the input molecule. Input: `Cc1ccc(-c2c(Cl)nc(-n3cncn3)nc2N[C@@H](C)C(C)C)c(F)c1`
Result block: 7.40
